Hello, the source for this data is the nanobody polyreactivity screen of Harvey et al. (2022), in case you need it.

# RUN_DESCRIPTION: yeast display, Sf9 membrane polyspecificity reagent, FACS + sequencing; frameworks hold sequencing errors
MEASURED_ATTRIBUTE: polyreactivity (PSR sort gate)

MACROMOLECULE_SEQUENCE	polyreactivity (PSR sort gate)
QVQLVESGGGLVQAGGSLRLSCAASGSIFITYAMGWYRQAPGKDRELVATITSRSGGTYYADSVKGRFTISRDNAKNTVYLQMNSLKQEDTAVYYCNAVYTYPVFHGMGYWGQGTQVTVSS	high polyreactivity
QDQLVESGGGLVQAGGSLRLSCAASGRTFTVYAMGWYRPAPGKEREMVAAISRSGGRTYYADSVKGRFTISRDNAMNTVYLQRNSLKPEDTAVYYCAADVPYRTNDFDYWGQGTQVTVSS	high polyreactivity
QVQLVESGGGLVQAGGSLRLSCAASGFTFWRYAMGWYRQAPGKERELVAAISWRGSSTYYADSVKGRFTISRDNAKNTVYLQMNSLKPEDSAVYYCAARYITFNGYGYGYWGQGTQVTVSS	high polyreactivity
QVQLVESGGGLVQAGGSLRLSCAASGRIFPFYVMGWYRQAPGKERELVASIRGGGSTNYADSVKGRFTISRDNAKNTVYLQMNSLKPEDTAVYYCNAARRYRAPLYDYWGQGTQVTVSS	high polyreactivity
QVQLVEAGGGLVQAGGSLRLSCAASGSIFKSYAMGRYRQAPGKEREFVASITKSGGTTYYADSVKGRFTISRDHAKNTVYLQMNSLKPEDTAVYYCAADWYRSSWTYNYLGQGTQVTVSS	low polyreactivity

The recorded polyreactivity (PSR sort gate) for "QVQLVESGGGLVQAGGSLRLICAASGIIFDGNAMGWYRQAPGKERELVASITSDSSTNYADSVKGRFTISRDNAKNTVYLQMNSLKPEDTAVYYCAADHWIAPRRDYWGQGTQVTVSS" is low polyreactivity

// field: polyreactivity (PSR sort gate); key: "QVQLVESGGGLVQAGGSLRLSCAASGSTFGTNVMGWYRQAPGKERELVAAISGRGGRTYYADSVKGRFTISRDNAKNTVYLQMNSLKPEDTAVYYCAAPRYYSREYDYWGQGTQVTVSS" ; value = high polyreactivity

Query "QVQLVESGGGLVQAGGSLRLSCAASGRTFWYNAMGWYRQAPGKERELVAAISSSGGTTYYADSVKGRFTISRDNAKNTVYLQMNSLIPEDTAVYYCARQRRSVNVYKNIYKYWGQGTQVNVSS" yields polyreactivity (PSR sort gate) of high polyreactivity

Query "QVQLVESGGGLVQAGGSLRLSCAASGFTLYRNAMGWYRQAPGKERELVAAITSSGGGTYYADSVKGRFTISRDNAKNTVYLQMNSLKPEDTAVYYCAARSTSDREGNYWGQGTQVTVSS" yields polyreactivity (PSR sort gate) of low polyreactivity

GET /value?item= "QVQLVESGGGLVKARGSLRLSFAASGSTFLVYAMGWYRQAPGKEREFVAAITWSGGYTYYADSVKGRFTISRDNAKNTVYLQMNSLKPEDTSVYYSAAEIQRTYSWEYPYEMYWGQGTQVTVSS" &field=polyreactivity (PSR sort gate) returns high polyreactivity

Per the records, this sequence ( "QVQLVESGGGLVQAGGSLRLSCAASGRTFSQYAMGWYRQAPRKERELVAAISWGGRTYYADSVKGRFTISRDNAKNTVYLQMNSLKPEDTAVYYCAASSKLTYYEENHWGQGTQVTVSS" ) has polyreactivity (PSR sort gate) equal to high polyreactivity
